Tested on: THP-1
Protocol details: cells
Measurement conditions: Homo sapiens
pIC50: −log10 of the molar value.
Measurement label: pIC50

Fill blank: measured pIC50 of the compound CCCCCCNNC(=O)c1ccc(CNC(=O)CN2CCC(c3ccc(NC4CCC(=O)NC4=O)cc3)CC2)cc1 (stereo unspecified) is ____.
< 4.48

----------
Tested on: Jurkat
Protocol details: cells
Measurement conditions: Homo sapiens
Measurement label: IC50
Mention the unit after the number when you answer.

Fill blank: measured IC50 of the compound CCCCCCNNC(=O)c1ccc(CNC(=O)CN2CCC(c3ccc(NC4CCC(=O)NC4=O)cc3)CC2)cc1 (stereo unspecified) is ____.
2 µM

----------
System: Jurkat
Protocol details: cells
Measurement conditions: Homo sapiens
Measurement label: IC50 (nM)
Give bare numbers, in nM.

Record lookup: for Jurkat, what IC50 belongs to CCCCCCNNC(=O)c1ccc(CNC(=O)CN2CCC(c3ccc(NC4CCC(=O)NC4=O)cc3)CC2)cc1 (stereo unspecified) ?
2800
